From: ChEMBL document CHEMBL4138080

assay: Photostability of the compound in DMSO/H20 (1:1) solvent assessed as half life for compound degradation at 100 to 600 uM under irradiation at 390 to 470 nm by HPLC analysis; format: physicochemical; conditions: DMSO/H2O (1:1)
Recorded half-life at up to 600 µM by entry
recordedEndpoint: half-life at up to 600 µM (min)

> print(dat)
                                smilesentry           recordedendpoint  signqualifier  testvalue
1  Cc1ccc2c(c1)C(=O)[C@]1(O)CCN(c3ccc(N)cc3)C1=N2  half-life at up to 600 µM              =         44
2  Cc1ccc2c(c1)C(=O)[C@]1(O)CCN(c3ccc(O)cc3)C1=N2  half-life at up to 600 µM              =        4.7
3  C=CCOc1ccc(N2CC[C@@]3(O)C(=O)c4cc(C)ccc4N=C23)cc1  half-life at up to 600 µM              =        8.8
4  Cc1ccc2c(c1)C(=O)[C@]1(O)CCN(c3cccc(O)c3)C1=N2  half-life at up to 600 µM              =         11
5  Cc1ccc2c(c1)C(=O)[C@]1(O)CCN(c3ccccc3)C1=N2  half-life at up to 600 µM              =         14
6  Cc1ccc2c(c1)C(=O)[C@]1(O)CCN(c3cccc(N)c3)C1=N2  half-life at up to 600 µM              =         13
7  Cc1ccc2c(c1)C(=O)[C@]1(O)CCN(c3ccc([N+](=O)[O-])cc3)C1=N2  half-life at up to 600 µM              >         90
8  C=CCOc1cccc(N2CC[C@@]3(O)C(=O)c4cc(C)ccc4N=C23)c1  half-life at up to 600 µM              =         15
